The reader will find reported protein stability index values listed item by item below.
B1: ATL3 (parent)
chain: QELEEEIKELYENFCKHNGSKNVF

Variants of: B1
procedure text: protein stability index of a GFP-peptide fusion (GPS, HEK-293T) (PSI 1-6); higher = more stable;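 also: lentivirally expressed fusions sorted by FACS into six bins by GFP to DsRed ratio, PSI derived from sequencing read proportions per bin multiplied by bin number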
conditions used: c terminus: a fixed tail appended

chain sequence: QELEEEIKELYENFCKHNGSKQVF [N22Q]
protein stability index: 2.98
//
chain sequence: QELEEEIKELYENFCKHNGSKLVF [N22L]
protein stability index: 2.57
//
chain sequence: QELEEEIKELYENNCKHNGSKNVF [F14N]
protein stability index: 4.55
//
chain sequence: QELEEEIKELYENFCKHNGSHNVF [K21H]
protein stability index: 2.16
//
chain sequence: QELEEEIKELYENFCKHNGSKNCF [V23C]
protein stability index: 2.27
//
chain sequence: QELEEEIKELYENFCKHNGSFNVF [K21F]
protein stability index: 1.65
//
chain sequence: QELEEERKELYENFCKHNGSKNVF [I7R]
protein stability index: 4.17
//
chain sequence: QELEEEIKELYENFCKVNGSKNVF [H17V]
protein stability index: 2.72
//
chain sequence: QELEEEIKELYENFCKHNGSANVF [K21A]
protein stability index: 2.25
//
chain sequence: QELEEEIKELYENFCKHNGSKNIF [V23I]
protein stability index: 2.62
//
chain sequence: QELEMEIKELYENFCKHNGSKNVF [E5M]
protein stability index: 2.81
//
chain sequence: QELEEEIKELYENFCKHNFSKNVF [G19F]
protein stability index: 2.65
//
chain sequence: QKLEEEIKELYENFCKHNGSKNVF [E2K]
protein stability index: 3.3
//
chain sequence: QELEEEIKELYANFCKHNGSKNVF [E12A]
protein stability index: 2.37
//
chain sequence: QELEEEIKELYENFFKHNGSKNVF [C15F]
protein stability index: 3.03
//
chain sequence: QELEEEIKELDENFCKHNGSKNVF [Y11D]
protein stability index: 5.09
//
chain sequence: QELEEEIKELYEYFCKHNGSKNVF [N13Y]
protein stability index: 2.34
//
chain sequence: QELEEEIKELYENFCKHNGSKNNF [V23N]
protein stability index: 3.06
//
chain sequence: QELEEEIKELYENFCKHNGSKIVF [N22I]
protein stability index: 2.48
//
chain sequence: QELEEEAKELYENFCKHNGSKNVF [I7A]
protein stability index: 4.55
//
chain sequence: QEYEEEIKELYENFCKHNGSKNVF [L3Y]
protein stability index: 2.85
//
chain sequence: QELEEEIKELYGNFCKHNGSKNVF [E12G]
protein stability index: 3.27
//
chain sequence: QELEETIKELYENFCKHNGSKNVF [E6T]
protein stability index: 2.86
//
chain sequence: QELEEEIEELYENFCKHNGSKNVF [K8E]
protein stability index: 3.63
//
chain sequence: QELEESIKELYENFCKHNGSKNVF [E6S]
protein stability index: 2.85
//
chain sequence: QELEEEIKELYENFCKHNGSKNPF [V23P]
protein stability index: 2.61
//
chain sequence: QELHEEIKELYENFCKHNGSKNVF [E4H]
protein stability index: 2.12
//
chain sequence: QELEEEIKELYENFCKHNGKKNVF [S20K]
protein stability index: 3.17
//
chain sequence: QELEEEIKELYENFCKHNGSKRVF [N22R]
protein stability index: 3.3
//
chain sequence: QSLEEEIKELYENFCKHNGSKNVF [E2S]
protein stability index: 2.97
//
chain sequence: QELEEEIKELYENFCKRNGSKNVF [H17R]
protein stability index: 2.6
//
chain sequence: QELEEEIKELYWNFCKHNGSKNVF [E12W]
protein stability index: 1.98
//
chain sequence: QELEEEIKELLENFCKHNGSKNVF [Y11L]
protein stability index: 3.61
//
chain sequence: QELEEEIKELYENFCKHNCSKNVF [G19C]
protein stability index: 2.31
//
chain sequence: QELEEEIKELYENFCKHNSSKNVF [G19S]
protein stability index: 3.18
